Exercise: for every item that follows, state its recorded IC50.
Species on record: Bos taurus
Test: Inhibition of [Fe(2+)]/ascorbate-induced oxidation of bovine heart membranes(antioxidant BHMLO)
Assay type: functional
Please reply with the bare figure in µM and do not write the unit itself.

# compound COc1ccc2cc([C@H](C)C(=O)NCC3(C)CCc4c(C)c(O)c(C)c(C)c4O3)ccc2c1 (some centres undefined) ; its IC50 = 2.5

# compound COc1ccc2cc(C(C)C(=O)NCCC3(C)Cc4c(C)c(O)c(C)c(C)c4O3)ccc2c1 (centres undefined) ; its IC50 = 5.6

# compound COc1ccc2cc([C@H](C)C(=O)OCCC3(C)CCc4c(C)c(O)c(C)c(C)c4O3)ccc2c1 (some centres undefined) ; its IC50 = 7.66

# compound COc1ccc2cc([C@H](C)C(=O)OCCC3(C)Cc4c(C)c(O)c(C)c(C)c4O3)ccc2c1 (stereo in doubt; 2c) ; its IC50 = 5.1

// data source = ChEMBL document CHEMBL1132417
